Tested on: NCI-H460 lung
test name: NCI-60 one-dose screen, 48 h (100 = growth as untreated, 0 = no growth, -100 = all killed)
condition label: 10 µM unless noted
This is part of a sample that, as a whole, favours compounds with a hit. Of some 83,000 tested, about 20% had one in any assay.

{"compound": "Clc1ccc(Nc2ccnc(N3CCN(c4ccnc5cc(Cl)ccc45)CC3)n2)cc1", "unit abbreviation": "%", "growth": 48.4}
{"compound": "COc1ccc(-c2csc3c2-n2cccc2C3=O)cc1O", "unit abbreviation": "%", "growth": 1.57}
{"compound": "COC(=O)/C=C1/CCC2C3CCC4=CC(=O)C(Br)CC4(C)C3C(=O)CC12C (stereo unspecified)", "unit abbreviation": "%", "growth": 59.3}
{"compound": "C=CC[P+](c1ccccc1)(c1ccccc1)c1ccccc1", "unit abbreviation": "%", "growth": 53.5}
{"compound": "CCOC(=O)c1cc2c(n(C)c1=O)-c1cnn(-c3ccc(OC)cc3)c1CC2", "unit abbreviation": "%", "growth": 108}
{"compound": "COc1ccc(/C=C/C(=O)N2CCC(O)CC2)cc1OC1CCCC1", "unit abbreviation": "%", "growth": 104}
{"compound": "COc1cccc(OC)c1OC(=O)c1ccccc1", "unit abbreviation": "%", "growth": 102}
{"compound": "CCOc1ccc(-c2cnnn2-c2nonc2-n2cccc2)cc1", "unit abbreviation": "%", "growth": 10.2}
{"compound": "O=C1C(N2CCOCC2)=Cc2cccc3cccc1c23", "unit abbreviation": "%", "growth": 93.2}
{"compound": "CCCCc1ccc(C(O)(CCN2CC3CCC(CC3)C2)c2ccccc2)cc1 (stereo unspecified)", "unit abbreviation": "%", "growth": 107}
{"compound": "CCN1CCN(c2nc3ccccc3c3c(=O)c4cc(F)ccc4sc23)CC1", "unit abbreviation": "%", "growth": 38.5}
{"compound": "O=C1/C(=C/c2ccc(Oc3ccccc3)cc2)N=C(c2ccccc2)N1CCc1cccs1", "unit abbreviation": "%", "growth": 70.1}
{"compound": "CCCCC1COc2cccc3c(SCC(=O)N(C)c4cccc5ccccc45)cc[n+]1c23 (stereo unspecified)", "unit abbreviation": "%", "growth": 107}
{"compound": "C[C@]1(CO)C[C@@H](O)C[C@]2(C)[C@@H]1CC[C@@]13C[C@@H]4[C@@H](C[C@H]12)[C@]4(C)C3", "unit abbreviation": "%", "growth": 104}
{"compound": "COc1ccc(-c2cc(=O)oc3c4c(ccc23)OCN(Cc2ccc(F)cc2)C4)cc1", "unit abbreviation": "%", "growth": 61.8}
{"compound": "COC(=O)c1cc(-c2ccc(C)cc2)n(C(=O)CSc2nc3sc(C(N)=O)c(C)c3c(=O)n2Cc2ccccc2)n1", "unit abbreviation": "%", "growth": 103}
{"compound": "C=CC(=O)N1CC2(CC(n3nc(-c4ccc(Oc5ccccc5)cc4)c4c(N)ncnc43)C2)C1", "unit abbreviation": "%", "growth": 40.5}
{"compound": "c1ccc2cc(-c3n(Cc4ccc5ccccc5n4)c4ccccc4[n+]3Cc3ccc4ccccc4n3)ccc2c1", "unit abbreviation": "%", "growth": -57.3}
{"compound": "Cc1nn(-c2ccccc2)c2nc3nc4c(c(N)c3c(-c3ccc(Cl)cc3)c12)CCCC4", "unit abbreviation": "%", "growth": 97.4}
{"compound": "O=C(N/N=C(\\CS(=O)(=O)c1ccccc1)c1cc2cc(Br)ccc2oc1=O)c1ccccc1", "unit abbreviation": "%", "growth": 99.7}
{"compound": "COc1ccc(/C=C(\\C#N)c2cc3ccccc3n2C)cc1", "unit abbreviation": "%", "growth": 6.08}
